- assay protocol: Pharmacokinetics and bioavailability in rats after single oral and intravenous doses
- Type: in vivo, Sprague-Dawley rats
- setup conditions: male, Sprague-Dawley, plasma; rat, oral 25 mg/kg vs intravenous 2 mg/kg; read-out: F (bioavailability)
property name: bioavailability (%)
One number for each entry, in %.

Q: I have this compound here, Nc1nc2[nH]c(CC(=O)NCC(=O)N[C@@H](CCC(=O)O)C(=O)O)cc2c(=O)[nH]1 [glytrexate] , and I need its recorded bioavailability.
Result: 0.59

---

- assay protocol: Plasma protein binding rate by ultrafiltration, human plasma
- Format: in vitro ADME
- setup conditions: 20 μg/ml, 37°C, 30 min incubation, ultrafiltration
property name: fraction unbound at 30 min, 20 μg/ml

Q: I have this compound here, Nc1nc2[nH]c(CC(=O)NCC(=O)N[C@@H](CCC(=O)O)C(=O)O)cc2c(=O)[nH]1 [glytrexate] , and I need its recorded fraction unbound at 30 min, 20 μg/ml.
Result: 0.807

Cited source for all entries: paper PMC9577195
